# Test system: SK-MEL-5
# test name: NCI tumour cell line growth inhibition, 48 h
Active and inactive are the calls of the source. No stated cut-off is given here; in the data, active = GI50 up to about 1.1 µM and inactive = higher.
Can you tell me GI50 for the items I'm about to list?

| molecule | GI50 |
| --- | --- |
| O=C(CCCCCCCCC(=O)NN1C(=O)/C(=C\c2ccc(O)c(O)c2)SC1c1c(O)ccc2ccccc12)NN1C(=O)C(=Cc2ccc(O)c(O)c2)SC1c1c(O)ccc2ccccc12 (centres undefined) | 1.93 µM (inactive) |
| Clc1ncc(C(Cl)(Cl)Cl)nc1-c1ccccc1 | 12.2 µM (inactive) |
| CC1(C)CC(=O)c2c(nc3ccc4ccccc4c3c2-c2ccc(NC(=O)CCC(=O)Nc3ccc(-c4c5c(nc6ccc7ccccc7c46)CC(C)(C)CC5=O)cc3)cc2)C1 | > 100 µM (inactive) |
| Cc1cccc(C)c1NC(=O)C(=O)C1C(=O)NC(=O)NC1=O | > 100 µM (inactive) |
| CS/C(=N\c1nccs1)NC(=O)c1cccc(Cl)c1 | > 100 µM (inactive) |
| Cc1ccc(O)c(Cc2nc3ccccc3nc2-c2cccc(Cl)c2)c1 | 40.2 µM (inactive) |
| c1ccc(/N=C(\N2CCOCC2)N(CCN2CCOCC2)c2ccccc2)cc1 | > 100 µM (inactive) |
| N=C(N)N/N=C\c1c(-c2cccc([N+](=O)[O-])c2)nc2sccn12 | 14.6 µM (inactive) |

# next molecule below
Req: Hi! What's the reported GI50 for `Cc1cccc(/C(Br)=C2/OC(=O)c3ccccc32)c1` on SK-MEL-5?
Resp: > 100 µM (inactive)

====

# System: UACC-62
# test name: NCI tumour cell line growth inhibition, 48 h
The source made the active and inactive calls. No stated cut-off is given here; in the data, active = GI50 up to about 1.1 µM and inactive = higher.
Exercise: state measured GI50 for each of the compounds provided.

Field: example entries. Status: answers known.
| compound | recorded measurement |
| --- | --- |
| CC(=O)Oc1ccc2c3c1[C@@H]1O[C@@H]1c1cccc(c1-3)[C@@H]1O[C@H]21 | 1.87 µM (inactive) |
| N#Cc1c(N2CCOCC2)ncn(-c2ccccc2)c1=O | > 100 µM (inactive) |
| O=C(NC(Cc1c[nH]cn1)C(=O)N1CCCC1)C1CCCC1 (stereo not given) | > 100 µM (inactive) |

Provide each entry's GI50 from the list below.
1. CC(C)(C)c1cc(C(C)(C)C)c(SC2OC(CO)C(O)C(O)C2O)c(O)c1O (stereo not given)
2. CN1CCN(c2ccc3nc(C4=C(O)C(=O)c5c(nc(CCl)n5C)C4=O)[nH]c3n2)CC1

Resp:
1. 2.2 µM (inactive)
2. 9.89 µM (inactive)

====

# Test system: NCI-H23
# test name: NCI tumour cell line growth inhibition, 48 h
Activity calls are given as the source filed them. Cut-off read from the data, not from the text of the source: active = GI50 up to about 1.1 µM and inactive = higher.
recorded metric: GI50

// below: answered compounds
| compound | recorded metric | recorded measurement |
| --- | --- | --- |
| COC(=O)Cc1c(C(=O)CC(C)(C)n2cnc(CCN3C(=O)CCC3=O)c2)[nH]c2ccccc12 | GI50 | > 100 µM (inactive) |
| Cn1c2ccccc2c(=O)c2c(O)cc3c(c21)C=CC(C)(C)O3 [NORACRONYCINE] | GI50 | > 25 µM (inactive) |
| CC(=O)Oc1ccc2ccc(=O)oc2c1OC(C)=O | GI50 | 32 µM (inactive) |
| CC(=O)O[C@H]1[C@@H](OC2CCCC2(c2ccccc2)c2ccccc2)O[N+]([O-])=C[C@@]12COCc1cc3c(cc12)OCO3 (stereo not given in full) | GI50 | 13.2 µM (inactive) |
| N#CC(/C(=N\NC(N)=S)C(=O)NC1C2CC3CC(C2)CC1C3)c1ccc(Cl)cc1 (stereo not given) | GI50 | > 100 µM (inactive) |

List the reported GI50 of each compound below.
1. Cn1ncc2c(NCCc3ccccc3)nc(Cl)nc21
2. C[C@]12CC[C@H](O)CC1=CC[C@@H]1C2CC[C@]2(C)NC(=O)C(C#N)CC12 (stereo not given in full)
3. C=CCN1CCN([C@H](c2ccc(C(=O)N(CC)CC)cc2)c2cccc(OC)c2)CC1
4. COc1cc2c(cc1OC)C1c3ccccc3CCN1CC2 (stereo not given)
5. CCc1cccc(CC)c1NC(=O)C(=O)Cc1nc2ccccc2o1
6. O=C(Nc1nc2ccc([N+](=O)[O-])cc2s1)C(=O)C(C1OC(=O)c2ccccc21)[N+](=O)[O-] (stereo not given)
7. NC(=S)NNc1c([N+](=O)[O-])cnn(-c2ccccc2)c1=O

Resp:
["24.8 µM (inactive)", "> 100 µM (inactive)", "> 25 µM (inactive)", "63.5 µM (inactive)", "> 100 µM (inactive)", "55.2 µM (inactive)", "19 µM (inactive)"]
